Listed below: Cytotox ratio Pf Female values for each entry.
# System: P. falciparum female gametocytes
# Assay Remarks: P. falciparum Dual Gamete Formation Assay (PfDGFA), female readout (Pfs25-positive female gametes)
# Type: cell-based, Plasmodium falciparum NF54
Test Readout: Cytotox ratio Pf Female

Smi: CN1CCN(c2ccc(Nc3ncc(Cl)c(Nc4cccnc4C(N)=O)n3)cc2)CC1.Cl
Measured On: P. falciparum female gametocytes
Measured Value: 1.0
//
Smi: c1ccc2sc(Sc3ncnc4sccc34)nc2c1
Measured On: P. falciparum female gametocytes
Measured Value: 258.6
//
Smi: Cn1c(Sc2ncnc3sccc23)nc2ccccc21
Measured On: P. falciparum female gametocytes
Measured Value: 178.6
//
Smi: Cc1cccc(Nc2nc(NCCCCN)nc3cc[nH]c(=O)c23)c1.O=C(O)C(F)(F)F
Measured On: P. falciparum female gametocytes
Measured Value: 2.9
//
Smi: COc1ccc(-c2cnc(N)c(-c3ccc(C(N)=O)cc3)c2)cc1OC
Measured On: P. falciparum female gametocytes
Measured Value: 5.8
//
Smi: c1ccc2[nH]c(CN(Cc3nc4ccccc4[nH]3)Cc3nc4ccccc4[nH]3)nc2c1
Measured On: P. falciparum female gametocytes
Measured Value: 10.0
//
Smi: N=C(N)NCCN(Cc1ccccc1)c1ccc(Cl)cc1
Measured On: P. falciparum female gametocytes
Measured Value: 7.5
//
Smi: CC(C)S(=O)(=O)N1CCN(Cc2ccc3c(c2)nc(NC(=O)c2ccsc2)n3C[C@H](O)c2ccccc2)CC1
Measured On: P. falciparum female gametocytes
Measured Value: 0.848
//
Smi: O=C(c1ccc(-c2cnc3[nH]cc(-c4ccc(C(=O)N5CCOCC5)cc4)c3c2)cc1)N1CCOCC1
Measured On: P. falciparum female gametocytes
Measured Value: 2.9
//
Smi: Cc1cccc2nc(-c3ccc(-c4cccc(CNCCN5CCNCC5)c4)cc3)[nH]c12.O=C(O)C(F)(F)F
Measured On: P. falciparum female gametocytes
Measured Value: 2.1
//
Smi: CCS(=O)(=O)Nc1ccc2c(c1)/C(=C(/Nc1ccc(CN3CCCCC3)cc1)c1ccccc1)C(=O)N2
Measured On: P. falciparum female gametocytes
Measured Value: 0.9
//
Smi: Cc1cc(Nc2ncc(C#N)c(Nc3ccccc3C(N)=O)n2)ccc1N1CCN(C)CC1.Cl
Measured On: P. falciparum female gametocytes
Measured Value: 0.244
//
Smi: CN1CCN(c2ccc(Nc3c4ccccc4nc4ccccc34)cc2)CC1
Measured On: P. falciparum female gametocytes
Measured Value: 3.0
//
Smi: COc1ccc(Nc2ncc(C#N)c(Nc3ccccc3C(N)=O)n2)cc1N1CCN(C)CC1.Cl
Measured On: P. falciparum female gametocytes
Measured Value: 0.9
//
Smi: Cl.O=C1Nc2ccc3ncccc3c2/C1=C/Nc1ccc(N2CCN(CCO)CC2)cc1
Measured On: P. falciparum female gametocytes
Measured Value: 3.4
//
Smi: COc1cc(-c2nc(C(C)(C)CN)[nH]c2-c2ccncc2)ccc1Br.Cl
Measured On: P. falciparum female gametocytes
Measured Value: 25.9
//
Smi: COc1ccc2nc3cc(Cl)ccc3c(NCCCCNc3c4ccc(Cl)cc4nc4ccc(OC)cc34)c2c1
Measured On: P. falciparum female gametocytes
Measured Value: 22.1
//
Smi: COCCn1c(Sc2ncnc3sccc23)nc2ccccc21
Measured On: P. falciparum female gametocytes
Measured Value: 94.3
//
Smi: O=C(O)C(F)(F)F.O=c1[nH]ccc2nc(N[C@@H]3CCCNC3)nc(Nc3ccc(S(=O)(=O)N4CCOCC4)cc3)c12
Measured On: P. falciparum female gametocytes
Measured Value: 4.1
//
Smi: Cc1ccc(C)c(S(=O)(=O)NCC2CCN(Cc3ccc(O)cc3)CC2)c1.O=C(O)C(F)(F)F
Measured On: P. falciparum female gametocytes
Measured Value: 8.2
